Target: SFRP-1 (Homo sapiens, UniProt Q8N474)
Assay method text: Cell-based assay for in vitro measurement of SFRP-1/SARP2 antagonist activity (U2OS cells co-transfected with 16x TCF-tk-Luciferase reporter, Wnt and hSFRP-1)
Condition context: Conc 15 μM; with SFRP-1; fold induction over SFRP-1 control, single dose
Readout label: Fold Induction with SFRP-1 (fold)

# count of solved cases: 5
>>> df
                                   compound  experimental_value
0  Cc1ccc(S(=O)(=O)c2ccc(F)cc2)cc1S(=O)(=O)NC(C)C(O)c1ccccc1 (stereo not drawn)                 1.8
1  COc1ccc(S(=O)(=O)c2ccccc2)cc1S(=O)(=O)NCCN1CCOCC1                 1.4
2  Cc1ccc(S(=O)(=O)c2ccc(Cl)cc2)cc1S(=O)(=O)NC[C@@H](C)c1ccccc1                 1.2
3  Cc1ccc(S(=O)(=O)c2ccccc2)cc1S(=O)(=O)NC(C)C(O)c1ccccc1 (stereo not drawn)                 2.2
4  COCCCNS(=O)(=O)c1cc(S(=O)(=O)c2ccc(F)cc2)ccc1C                   2

(a) Cc1ccc(S(=O)(=O)c2ccc(C)c(S(=O)(=O)NC[C@@H](C)c3ccccc3)c2)cc1
(b) Cc1ccc(S(=O)(=O)c2ccc(F)cc2)cc1S(=O)(=O)NCCc1ccccn1
(c) Cc1ccc(S(=O)(=O)c2ccccc2)cc1S(=O)(=O)NCCCn1ccnc1
Task item: // sort entries: Fold Induction with SFRP-1, high to low To answer, write out the labels according to the requested order.
Reply: c, b, a

* * *

Target: UniProt:Q8N474
Assay method text: Cell-based assay for in vitro measurement of SFRP-1/SARP2 antagonist activity (U2OS cells co-transfected with 16x TCF-tk-Luciferase reporter, Wnt and hSFRP-1)
Condition context: U2OS, read-out: Fold Induction without SFRP-1, Conc 20 μM; without SFRP-1, single dose
Readout label: fold induction at 20 µM

>>> print(df.to_string())
                             chemical_string  experimental_value
 0  Cc1ccc(S(=O)(=O)c2ccc(F)cc2)cc1S(=O)(=O)N[C@H]1C[C@@H]1c1ccccc1                 0.9
 1  Cc1ccc(S(=O)(=O)c2ccccc2)cc1S(=O)(=O)N[C@H]1C[C@@H]1c1ccccc1                 0.9
 2  Cc1ccc(S(=O)(=O)c2ccc(C)c(S(=O)(=O)NC3Cc4ccccc4C3)c2)cc1                   1
 3  Cc1ccc(S(=O)(=O)c2ccc(Cl)cc2)cc1S(=O)(=O)N[C@H]1C[C@@H]1c1ccccc1                   1
 4  Cc1ccc(S(=O)(=O)c2ccccc2)cc1S(=O)(=O)NC1Cc2ccccc2C1                 0.8
 5  Cc1ccc(S(=O)(=O)c2ccc(F)cc2)cc1S(=O)(=O)NC1Cc2ccccc2C1                 0.8
 6  Cc1ccc(S(=O)(=O)c2ccccc2)cc1S(=O)(=O)NC[C@H](C)c1ccccc1                 0.9
 7  O=S(=O)(NC1Cc2ccccc2C1)c1cccc(S(=O)(=O)c2ccccc2)c1                   1
 8  Cc1ccc(S(=O)(=O)c2ccc(C)c(S(=O)(=O)NC[C@H](C)c3ccccc3)c2)cc1                   1
 9  Cc1ccc(S(=O)(=O)c2ccc(Cl)cc2)cc1S(=O)(=O)NC1Cc2ccccc2C1                 1.1
10  O=S(=O)(N[C@H]1C[C@@H]1c1ccccc1)c1cccc(S(=O)(=O)c2ccccc2)c1                 1.1
11  Cc1ccc(S(=O)(=O)c2ccc(Cl)cc2)cc1S(=O)(=O)NC[C@H](C)c1ccccc1                   1
12  C[C@@H](CNS(=O)(=O)c1cccc(S(=O)(=O)c2ccccc2)c1)c1ccccc1                   1
13  Cc1ccc(S(=O)(=O)c2ccc(C)c(S(=O)(=O)N[C@H]3C[C@@H]3c3ccccc3)c2)cc1                 0.9
14  Cc1ccc(S(=O)(=O)c2ccc(F)cc2)cc1S(=O)(=O)NC[C@H](C)c1ccccc1                 0.8

* * *

Target: SFRP-1 (Homo sapiens, UniProt Q8N474)
Assay method text: Cell-based assay for in vitro measurement of SFRP-1/SARP2 antagonist activity (U2OS cells co-transfected with 16x TCF-tk-Luciferase reporter, Wnt and hSFRP-1)
Condition context: U2OS, read-out: Fold Induction with SFRP-1, U2OS cells, single dose 10 μM, luciferase reporter, fold induction over SFRP-1 control
Readout label: fold induction at 10 µM

>>> df
                                   molecule  experimental_value
0  C[C@H](CO)NS(=O)(=O)c1cc(S(=O)(=O)c2ccccc2)ccc1C(F)(F)F                   3
1  O=C(O)CN1CCC(CCNS(=O)(=O)c2cc(S(=O)(=O)c3ccccc3)ccc2C(F)(F)F)CC1                 2.9
2  O=C(O)C1CCCC(NS(=O)(=O)c2cc(S(=O)(=O)c3ccccc3)ccc2C(F)(F)F)C1 (stereo not shown)                 2.1
3  CC(C)(C)OC(=O)N[C@H]1CC[C@H](NS(=O)(=O)c2cc(S(=O)(=O)c3ccccc3)ccc2C(F)(F)F)CC1                 3.4
4  COC(=O)c1ccc(CNS(=O)(=O)c2cc(S(=O)(=O)c3ccccc3)ccc2C(F)(F)F)cc1                 2.6

(P) CCCCNC(=S)N1CCC(NS(=O)(=O)c2cc(S(=O)(=O)c3ccc(F)cc3)ccc2C(C)C)CC1
(Q) O=C(O)CN1CCCC1CCNS(=O)(=O)c1cc(S(=O)(=O)c2ccccc2)ccc1C(F)(F)F (stereo not shown)
Task item: # compare fold induction at 10 µM for P vs Q ; return the one with the smaller value Could you answer with the label of the item you picked?
Reply: Q

* * *

Target: SFRP-1 (Homo sapiens, UniProt Q8N474)
Assay method text: Cell-based assay for in vitro measurement of SFRP-1/SARP2 antagonist activity (U2OS cells co-transfected with 16x TCF-tk-Luciferase reporter, Wnt and hSFRP-1)
Readout label: EC50 (nM)

In [3]: df
Out[3]:
                                   molecule  readout_label  experimental_value
0  CC(C)c1ccc(S(=O)(=O)c2ccccc2)cc1S(=O)(=O)NC1CCOCC1           EC50                2830
1  N[C@H]1CC[C@H](NS(=O)(=O)c2cc(S(=O)(=O)c3ccccc3)ccc2C(F)(F)F)CC1           EC50                 390
2  CN(CCNS(=O)(=O)c1cc(S(=O)(=O)c2ccccc2)ccc1C(F)(F)F)C(=O)c1ccccc1OC(F)(F)F           EC50                2380
3  O=C(O)COc1ccc2c(c1)CC(NS(=O)(=O)c1cc(S(=O)(=O)c3ccccc3)ccc1C(F)(F)F)C2 (stereo not shown)           EC50                  85
4  CC(C)c1ccc(S(=O)(=O)c2ccccc2)cc1S(=O)(=O)NC1CCN(C(=O)c2ccc(F)cc2)CC1           EC50                 512

(P) COC(=O)CNC(=S)N1CCC(NS(=O)(=O)c2cc(S(=O)(=O)c3ccc(F)cc3)ccc2C(C)C)CC1
(Q) CC(CO)NS(=O)(=O)c1cc(S(=O)(=O)c2ccccc2)ccc1Cl (stereo not shown)
Task item: # compare EC50 for P vs Q ; return the one with the smaller value Could you answer with the label of the item you picked?
Reply: P

* * *

Target: SFRP-1 (Homo sapiens, UniProt Q8N474)
Sequence (Q8N474 32-314): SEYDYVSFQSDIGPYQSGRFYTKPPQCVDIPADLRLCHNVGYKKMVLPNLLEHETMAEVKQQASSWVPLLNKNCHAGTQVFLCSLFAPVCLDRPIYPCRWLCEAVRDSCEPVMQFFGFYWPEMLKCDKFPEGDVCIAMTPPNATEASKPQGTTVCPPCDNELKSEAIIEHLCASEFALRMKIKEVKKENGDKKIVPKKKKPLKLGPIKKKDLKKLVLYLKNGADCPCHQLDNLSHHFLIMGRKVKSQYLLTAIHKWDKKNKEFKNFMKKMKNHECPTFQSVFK
Assay method text: Cell-based assay for in vitro measurement of SFRP-1/SARP2 antagonist activity (U2OS cells co-transfected with 16x TCF-tk-Luciferase reporter, Wnt and hSFRP-1);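 note: U2OS cells co-transfected with a TCF-tk luciferase reporter, a Wnt vector, hSFRP-1 or empty vector and CMV-βgal, luciferase luminescence read in cell lysates alongside βgal activity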
Condition context: U2OS, read-out: Fold Induction with SFRP-1, Conc 20 μM; with SFRP-1; fold induction over SFRP-1 control, single dose
Readout label: fold induction at 20 µM

# count of solved cases: 2
                                   compound  experimental_value
0  Cc1ccc(S(=O)(=O)c2ccc(C)c(S(=O)(=O)NC3Cc4ccccc4C3)c2)cc1 [Example 252]                 2.6
1  Cc1ccc(S(=O)(=O)c2ccccc2)cc1S(=O)(=O)NC1Cc2ccccc2C1 [Example 246]                 2.2

(A) Cc1ccc(S(=O)(=O)c2ccc(Cl)cc2)cc1S(=O)(=O)NC1Cc2ccccc2C1 [Example 255]
(B) Cc1ccc(S(=O)(=O)c2ccc(Cl)cc2)cc1S(=O)(=O)N[C@H]1C[C@@H]1c1ccccc1 [Example 256]
Task item: Response body: label of entry with the larger fold induction at 20 µM; valid values A , B . Could you answer with the label of the item you picked?
Reply: A
